- study.system: Synechocystis PCC6803 HPPD variant SyA318 (Glycine318 replaced with alanine) (Synechocystis sp., UniProt Q55810, G318A)
- Construct: crude extract (JM105 is named for the unmutated plasmid)
- assay.remarks: HPPD activity by HPLC determination of homogentisate (Km, IC50)
assay.metric: pIC50
API: returns pIC50 as number; meaning -log10 of concentration in mol/L.

Prompt: Would you mind telling me what pIC50 value was observed for CS(=O)(=O)c1cc(C(F)(F)F)ccc1C(=O)C(C#N)C(=O)C1CC1 (stereo not shown) ?
Response: 4.40

---

- study.system: Synechocystis PCC6803 HPPD variant SyN318 (Glycine318 replaced with asparagine) (Synechocystis sp., UniProt Q55810, G318N)
- Construct: crude extract (JM105 is named for the unmutated plasmid)
- Sequence (Q55810 whole entry G318N): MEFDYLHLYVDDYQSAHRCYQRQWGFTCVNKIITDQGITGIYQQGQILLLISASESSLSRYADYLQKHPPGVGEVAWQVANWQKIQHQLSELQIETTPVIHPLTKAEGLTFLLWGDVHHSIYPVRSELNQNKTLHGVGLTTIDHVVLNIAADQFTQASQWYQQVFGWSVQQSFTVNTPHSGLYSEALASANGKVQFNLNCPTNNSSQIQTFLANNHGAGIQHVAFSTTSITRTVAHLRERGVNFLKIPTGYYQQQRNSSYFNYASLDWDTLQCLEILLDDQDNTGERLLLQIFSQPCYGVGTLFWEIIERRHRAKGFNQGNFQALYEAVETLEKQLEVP
- assay.remarks: HPPD activity by HPLC determination of homogentisate (Km, IC50)
- Protocol: Glycine318, replaced with asparagine, designated SyN318, similar to PfD334 (in Example 3). […] The HPPD activity is measured by determining, by means of high performance liquid chromatography (HPLC), the quantity of product, i.e. homogentisate,which is formed after incubating the enzyme with its substrate HPP. […] The Km of the HPPD for HPP is determined by measuring the initial velocity of the reaction using different concentrations of HPP. […]
assay.metric: IC50 (µM)
Please state the figure in µM; there is no need to write the unit.

Prompt: Reported IC50 for CS(=O)(=O)c1cc(C(F)(F)F)ccc1C(=O)C(C#N)C(=O)C1CC1 (stereo not shown) : what is it?
Response: 80
